Test system: IGROV1 ovarian
TEST SUMMARY: NCI tumour cell line growth inhibition, 48 h; in the data active = GI50 below about 0.43 µM; inactive = the rest
Write down one outcome, taken from label 1 (active), label 0 (inactive)

Record excerpt, results attached:
>>> group("COc1ccc(-c2nc3sccn3c2/C=C/C(=O)c2cc(OC)c(OC)c(OC)c2)cc1")
"label 0"
>>> group("O=[N+]([O-])/C(=C/C=C/c1ccccc1)c1ccccc1")
"label 0"

input: Given Cc1nc2sc(C(=O)Nc3cccc(Cl)c3)c(N)c2cc1C(O)c1ccccc1 (centres undefined) , state the outcome it received in this test.
output: label 0

input: Assay result, entry "CC(C)(C)c1cnc(CSc2cnc(NC(=O)C3CCNCC3)s2)o1" — outcome?
output: label 1

input: Any idea what this test logged for "COc1cc(C(=O)Nc2ccc(-c3nc4ccccc4[nH]3)cc2)cc(OC)c1OC" ?
output: label 0

input: Check the results log: what was the call for "O=C(Cc1csc2nc(-c3ccc(Br)cc3)cn12)N/N=C/c1ccccc1O" ?
output: label 0

input: Could you please tell me the result logged for "CN1CCC(C(=O)Nc2n[nH]c3nnc(-c4ccccc4)cc23)CC1" in this assay?
output: label 0

input: Which outcome was assigned to CC(=O)O[C@H]1C(=O)[C@@]2(C)C([C@H](OC(=O)c3ccccc3)[C@]3(O)C[C@H](OC(=O)[C@H](O)[C@@H](NC(=O)c4ccc(Cl)cc4)c4ccccc4)C(C)=C1C3(C)C)C1(OC(C)=O)CO[C@@H]1C[C@@H]2O (some centres undefined) in this test?
output: label 1

input: Record request — test call for "Cn1cc(C2=C(c3cccc([N+](=O)[O-])c3)C(=O)NC2=O)c2ccccc21"
output: label 0

----------
System: NCI-H226 lung
TEST SUMMARY: NCI tumour cell line growth inhibition, 48 h
MEASURED PARAMETER: TGI

Please review the entries below; each comes with its answer.
>>> observed_value("O=C(c1ccccc1)C1C(c2ccccc2[N+](=O)[O-])N1C1CCCCC1 (stereo not given)")
"34 µM"
>>> observed_value("Cc1c(C(=O)/C=C/c2ccc3c(c2)OCO3)[n+](=O)c2ccccc2n1[O-]")
"60.9 µM"
>>> observed_value("CNC(=O)N(CCCCC(NC(C)=O)C(=O)NCc1ccccc1)Cc1ccccc1 (stereo not given)")
"> 100 µM"
>>> observed_value("O=C(CCCCCCCCC(=O)N1C(=O)CC(=O)N(c2ccc(Cl)cc2)C1=S)N1C(=O)CC(=O)N(c2ccc(Cl)cc2)C1=S")
"> 100 µM"
>>> observed_value("O=C1Cc2c([nH]c3ccccc23)-c2cc(Br)ccc2N1")
"> 100 µM"

input: Answer with reported TGI of "Cc1c(C)c2c(c(N)c1C#N)C(=O)N(NC(=S)Nc1ccccc1)C2=O"
output: > 100 µM

input: Identify TGI associated with the molecule "O=[N+]([O-])/C=C/c1cn(CCCCCCCCn2cc(/C=C/[N+](=O)[O-])c3ccccc32)c2ccccc12"
output: > 10 µM

input: Return TGI for the following molecule: NC(=O)C1C(=O)Oc2cccnc21 (stereo not given)
output: > 100 µM

input: Give the measured TGI for "CCOc1ccc(Nc2nc(N)nc(N)c2N=O)cc1"
output: > 100 µM

input: Please give measured TGI of the following entry: "COc1ccccc1-c1cc(=O)c2cccnc2[nH]1"
output: > 100 µM
